Growth controlling degree (%) wheat reference
tested on: wheat; assay: Test Example 2: soil surface treatment, upland pot test; type: in vivo, Triticum spp.; details: active ingredient 500 g/ha, observed 20th to 28th day
Provide the measurement as a number trailed by its unit.

1. CC(C)C(c1cnccc1C(F)(F)F)N(C)C(=O)Cc1csc2ccccc12 (centres unmarked) [I-192]
0%
2. CC(Oc1ccc(F)cc1)C(=O)N(C)C(c1cnccc1C(F)(F)F)C(C)C (mixture of isomers) [I-133]
40%
3. CC(C)C(c1cnccc1C(F)(F)F)N(C)C(=O)Cc1cccc(F)c1 (centres unmarked) [Compound I-20]
40%
4. CC(C)C(Br)C(=O)N(C)C(c1cnccc1C(F)(F)F)C(C)C (centres unmarked) [Compound I-197]
50%
5. CC(C)C(c1cnccc1C(F)(F)F)N(C)C(=O)Cc1ccc(Br)c(F)c1 (racemic) [Compound I-129]
30%
6. CC(C)C(c1cnccc1Cl)N(C)C(=O)Cc1ccccc1 (centres unmarked) [I-22]
30%
7. CC(Oc1ccc(Br)cc1)C(=O)N(C)C(c1cnccc1C(F)(F)F)C(C)C (mixture of isomers) [I-132]
10%

Okay, now this compound:
Challenge: Give measured Growth controlling degree (%) wheat for CC(C)C(c1cnccc1C(F)(F)F)N(C)S(=O)(=O)c1ccc(F)cc1 (racemic) [I-124] (wheat).
Response given: 10%

* * *

system: wheat; assay: Test Example 2: soil surface treatment, upland pot test; format: in vivo, Triticum spp.; conditions: active ingredient 500 g/ha, observed 20th to 28th day
readoutName: Growth controlling degree (%) wheat
Form entry: value (%) — number only.

// below: answered molecules
1. CC(C)C(c1cnccc1C(F)(F)F)N(C)C(=O)Cc1ccc(OC(F)F)cc1 (racemic)
30
2. CC(C)C(c1cnccc1C(F)(F)F)N(C)S(=O)(=O)C=Cc1ccccc1 (racemic)
10
3. CC(C)C(c1cnccc1C(F)(F)F)N(C)S(=O)(=O)c1ccc(F)cc1F (racemic)
30
4. CC(C)C(c1cnccc1C(F)(F)F)N(C)C(=O)CC1Cc2ccccc2C1 (centres unmarked)
20
5. CC(C)C(c1cnccc1C(F)(F)F)N(C)S(=O)(=O)c1ccccc1Cl (racemic)
10
6. CC(C)C(c1cnccc1C(F)(F)F)N(C)S(=O)(=O)c1ccc(Cl)cc1 (racemic)
20
7. Cc1ccc(OC(C)C(=O)N(C)C(c2cnccc2C(F)(F)F)C(C)C)cc1 (mixture of isomers)
20

Okay, now this molecule:
Challenge: Give measured Growth controlling degree (%) wheat for CC(C)C(=O)N(C)C(c1cnccc1C(F)(F)F)C(C)C (centres unmarked) (wheat).
Response given: 98

* * *

Test system: barnyardgrass
Assay: Test Example 3: paddy pot test, application under submerged conditions
Assay type: in vivo, Echinochloa crus-galli L.
Conditions: active ingredient 125 g/ha; submerged application at 0.5 leaf stage; visually observed 14 days after application; 0 = non-treated, 100 = complete kill
From the text: Paddy field soil was put into a 1/1,000,000 ha pot, and seed of barnyardgrass and japanese bulrush were sown and slightly covered with soil. Then, the pot was left to stand still in a greenhouse in a state where the depth of flooding water was from 0.5 to 1 cm, and one day or two days later, tubers of japanese ribbon wapato were planted. […]
readoutName: Growth controlling degree (%) Barnyardgrass
Form entry: value (%) — number only.

// below: answered molecules
1) CC(C)C(c1cnccc1Cl)N(C)C(=O)Cc1cccc(C(F)(F)F)c1 (centres unmarked)
95
2) CC(C)C(c1cnccc1Cl)N(C)C(=O)Cc1ccc(C(F)(F)F)cc1 (centres unmarked)
95
3) CC(C)C(c1cnccc1Cl)N(C)C(=O)Cc1ccc(F)cc1 (centres unmarked)
100
4) CC(C)C(c1cnccc1Cl)N(C)C(=O)Cc1cccc(F)c1F (centres unmarked)
90
5) CC(C)C(c1cnccc1Cl)N(C)C(=O)Cc1cccc(F)c1 (centres unmarked)
98
6) Cc1ccc(CC(=O)N(C)C(c2cnccc2C(F)(F)F)C(C)C)c(F)c1 (racemic)
95
7) CC(C)C(c1cnccc1Cl)N(C)C(=O)Cc1ccc(F)cc1F (centres unmarked)
90
8) Cc1ccc(S(=O)(=O)N(C)C(c2cnccc2C(F)(F)F)C(C)C)cc1 (racemic)
100

Challenge: Please give measured Growth controlling degree (%) Barnyardgrass of the following entry: CC(C)C(c1cnccc1Cl)N(C)C(=O)Cc1c(F)cccc1F (centres unmarked)
Response given: 80

Challenge: Please give measured Growth controlling degree (%) Barnyardgrass of the following entry: CC(C)C(c1cnccc1Cl)N(C)C(=O)Cc1ccc(F)c(F)c1 (centres unmarked)
Response given: 98

Challenge: Please give measured Growth controlling degree (%) Barnyardgrass of the following entry: CC(C)C(c1cnccc1Cl)N(C)C(=O)Cc1ccccc1F (centres unmarked)
Response given: 98
